Taken from patent US20220380366A1.

Biological target: wild-type RET kinase (Homo sapiens, UniProt P07949)
Construct: purchased Reaction Biology Corporation (contract assay; enzyme is the CRO's)
Sequence (P07949 29-1114): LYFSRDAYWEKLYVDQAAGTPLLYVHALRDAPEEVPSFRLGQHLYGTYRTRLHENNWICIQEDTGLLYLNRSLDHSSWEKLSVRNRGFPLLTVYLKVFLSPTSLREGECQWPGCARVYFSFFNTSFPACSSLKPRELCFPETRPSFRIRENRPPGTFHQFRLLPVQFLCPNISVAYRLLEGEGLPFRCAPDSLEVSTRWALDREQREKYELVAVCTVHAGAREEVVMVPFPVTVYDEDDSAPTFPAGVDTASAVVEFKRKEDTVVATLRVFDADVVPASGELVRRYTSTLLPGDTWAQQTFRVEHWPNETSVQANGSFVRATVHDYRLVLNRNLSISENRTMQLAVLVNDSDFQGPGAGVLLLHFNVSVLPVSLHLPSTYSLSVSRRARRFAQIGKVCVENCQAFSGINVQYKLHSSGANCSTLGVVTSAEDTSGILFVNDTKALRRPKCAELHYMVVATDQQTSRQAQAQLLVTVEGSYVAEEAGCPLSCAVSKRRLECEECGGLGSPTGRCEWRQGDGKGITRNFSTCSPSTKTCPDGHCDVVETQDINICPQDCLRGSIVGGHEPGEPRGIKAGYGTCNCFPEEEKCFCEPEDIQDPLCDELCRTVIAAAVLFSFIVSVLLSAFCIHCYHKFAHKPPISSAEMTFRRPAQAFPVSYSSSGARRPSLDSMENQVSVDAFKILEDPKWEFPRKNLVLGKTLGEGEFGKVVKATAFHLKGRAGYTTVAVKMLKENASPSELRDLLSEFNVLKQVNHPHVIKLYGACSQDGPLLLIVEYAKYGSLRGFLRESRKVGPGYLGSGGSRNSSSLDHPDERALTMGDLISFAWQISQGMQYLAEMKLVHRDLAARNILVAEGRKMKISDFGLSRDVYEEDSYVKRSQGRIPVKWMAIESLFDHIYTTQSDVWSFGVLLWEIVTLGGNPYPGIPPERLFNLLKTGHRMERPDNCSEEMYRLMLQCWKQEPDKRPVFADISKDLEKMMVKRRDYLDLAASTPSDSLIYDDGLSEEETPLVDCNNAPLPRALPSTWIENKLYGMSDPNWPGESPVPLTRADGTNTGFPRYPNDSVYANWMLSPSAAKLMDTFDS
Assay: Biochemical IC50 of wild-type RET kinase (33P-ATP filter binding, Reaction Biology)
pIC50: −log10 of the molar value.
observed_property: pIC50

structure_smiles_string=COc1ccc(CN=S2(=O)CCN(c3ccc(-c4cc(-c5cnn(C)c5)cn5ncc(C#N)c45)cn3)CC2)cn1 study_target="wild-type RET kinase (Homo sapiens, UniProt P07949)" observed_property=pIC50 reported_value=9.18
structure_smiles_string=Cn1cc(-c2cc(-c3ccc(N4CCC(N=S(C)(C)=O)CC4)nc3)c3c(C#N)cnn3c2)cn1 study_target="wild-type RET kinase (Homo sapiens, UniProt P07949)" observed_property=pIC50 reported_value=8.94
structure_smiles_string=CC(C)CN=S1(=O)CCN(c2ccc(-c3cc(-c4cnn(C)c4)cn4ncc(C#N)c34)cn2)CC1 study_target="wild-type RET kinase (Homo sapiens, UniProt P07949)" observed_property=pIC50 reported_value=9.05
structure_smiles_string=Cn1cc(-c2cn3ncc(C#N)c3c(-c3ccc(N4CCC(N=S(C)(C)=O)CC4)nc3)n2)cn1 study_target="wild-type RET kinase (Homo sapiens, UniProt P07949)" observed_property=pIC50 reported_value=8.39
structure_smiles_string=Cn1cc(-c2cn3ncc(C#N)c3c(-c3ccc(N4CCS(=N)(=O)CC4)nc3)n2)cn1 study_target="wild-type RET kinase (Homo sapiens, UniProt P07949)" observed_property=pIC50 reported_value=8.94
structure_smiles_string=Cn1cc(-c2cn3ncc(C#N)c3c(-c3ccc(N4CCC(N=[S@](C)(=O)c5ccccc5)CC4)nc3)n2)cn1 study_target="wild-type RET kinase (Homo sapiens, UniProt P07949)" observed_property=pIC50 reported_value=8.69
structure_smiles_string=COc1ccc(CN=S2(=O)CCN(c3ccc(-c4nc(-c5cnn(C)c5)cn5ncc(C#N)c45)cn3)CC2)cn1 study_target="wild-type RET kinase (Homo sapiens, UniProt P07949)" observed_property=pIC50 reported_value=8.99

====

pIC50: recorded values
Molecular target: RET-CCDC6 (Homo sapiens)
Construct: CCDC6 (fusion partner, UniProt Q16204); purchased Reaction Biology Corporation (contract assay; enzyme is the CRO's); the other entry of the earlier key: CCDC6 (Q16204, Coiled-coil domain-containing protein 6)
Sequence (P07949 with tags, fused parts or gaps): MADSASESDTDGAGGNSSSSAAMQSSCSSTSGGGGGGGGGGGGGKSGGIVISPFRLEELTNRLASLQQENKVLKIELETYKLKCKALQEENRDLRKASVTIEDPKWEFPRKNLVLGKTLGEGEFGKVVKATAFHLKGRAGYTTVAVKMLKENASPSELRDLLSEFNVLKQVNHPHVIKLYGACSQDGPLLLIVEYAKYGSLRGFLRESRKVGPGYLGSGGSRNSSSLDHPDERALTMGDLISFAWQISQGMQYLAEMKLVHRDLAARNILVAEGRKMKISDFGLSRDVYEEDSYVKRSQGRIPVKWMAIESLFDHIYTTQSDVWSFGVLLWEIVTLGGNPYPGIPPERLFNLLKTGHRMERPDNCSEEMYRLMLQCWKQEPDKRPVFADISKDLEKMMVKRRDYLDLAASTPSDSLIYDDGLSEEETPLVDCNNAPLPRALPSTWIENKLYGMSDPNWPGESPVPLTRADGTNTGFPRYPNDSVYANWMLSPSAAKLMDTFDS
Test: Biochemical IC50 of RET-CCDC6 fusion (33P-ATP filter binding, Reaction Biology)
Conditions: RET-CCDC6 fusion; ATP 1 μM; 33P-ATP filter binding; read-out: Biochemical IC50 RET-CCDC6
pIC50: −log10 of the molar value.
observed_property: pIC50

molecule="COc1ccc(N=S2(=O)CCN(c3ccc(-c4nc(-c5cnn(C)c5)cn5ncc(C#N)c45)cn3)CC2)cn1 [Ex. 22]" observed_property=pIC50 reported_value=9.39
molecule="Cn1cc(-c2cn3ncc(C#N)c3c(-c3ccc(N4CCC(N=[S@@](C)(=O)c5ccccc5)CC4)nc3)n2)cn1 [Ex. 24]" observed_property=pIC50 reported_value=8.71
molecule="CC(C)CN=S1(=O)CCN(c2ccc(-c3cc(OCC(C)(C)O)cn4ncc(C#N)c34)cn2)CC1 [Ex. 4]" observed_property=pIC50 reported_value=8.34
molecule="CC(C)(O)COc1cc(-c2ccc(N3CCC(N=S(C)(C)=O)CC3)nc2)c2c(C#N)cnn2c1 [Ex. 8]" observed_property=pIC50 reported_value=8.23
molecule="COc1ccc(N=S2(=O)CCN(c3ccc(-c4cc(OCC(C)(C)O)cn5ncc(C#N)c45)cn3)CC2)cn1 [Ex. 3]" observed_property=pIC50 reported_value=9.00
molecule="CC(C)(O)COc1cc(-c2ccc(N3CCS(=N)(=O)CC3)nc2)c2c(C#N)cnn2c1 [Ex. 2]" observed_property=pIC50 reported_value=8.55
molecule="Cn1cc(-c2cc(-c3ccc(N4CCS(=N)(=O)CC4)nc3)c3c(C#N)cnn3c2)cn1 [Ex. 12]" observed_property=pIC50 reported_value=9.28
molecule="Cn1cc(-c2cc(-c3ccc(N4CCC(N=[S@](C)(=O)c5ccccc5)CC4)nc3)c3c(C#N)cnn3c2)cn1 [Ex. 18]" observed_property=pIC50 reported_value=9.30
molecule="CC(C)(O)COc1cc(-c2ccc(N3CCS(=O)(=NC4CCNCC4)CC3)nc2)c2c(C#N)cnn2c1 [Ex. 7]" observed_property=pIC50 reported_value=7.90
molecule="COc1ccc(N=S2(=O)CCN(c3ccc(-c4cc(-c5cnn(C)c5)cn5ncc(C#N)c45)cn3)CC2)cn1 [Ex. 15]" observed_property=pIC50 reported_value=9.29
molecule="Cn1cc(-c2cc(-c3ccc(N4CCC(N=[S@@](C)(=O)c5ccccc5)CC4)nc3)c3c(C#N)cnn3c2)cn1 [Ex. 17]" observed_property=pIC50 reported_value=9.11
molecule="COc1ccc(CN=S2(=O)CCN(c3ccc(-c4cc(OCC(C)(C)O)cn5ncc(C#N)c45)cn3)CC2)cn1 [Ex. 5]" observed_property=pIC50 reported_value=8.68
molecule="CC(C)(O)COc1cc(-c2ccc(N3CCC(N=[S@@](C)(=O)c4ccccc4)CC3)nc2)c2c(C#N)cnn2c1 [Ex. 9]" observed_property=pIC50 reported_value=8.09
molecule="CC(C)(O)COc1cc(-c2ccc(N3CCC(N=[S@](C)(=O)c4ccccc4)CC3)nc2)c2c(C#N)cnn2c1 [Ex. 10]" observed_property=pIC50 reported_value=8.34
